target: UniProt P01116; experiment: Binding to KRAS by surface plasmon resonance (SPR), dissociation constant KD; conditions: Single Cycle Kinetics, 1:1 binding model
Where a SMILES comes first, the peptide text is derived from it. Bridges are numbered along the chain shown (N, C = ends). [ ]: non-standard residue; d: D form. The star is where a group is joined. hPhe(3-Cl-4-CF3) = N[C@@H](CCc1ccc(C(F)(F)F)c(Cl)c1)C(=O)O; NPrPhe(4-CF3) = CCCN[C@@H](Cc1ccc(C(F)(F)F)cc1)C(=O)O; NMeGly(cPent) = CN[C@H](C(=O)O)C1CCCC1; Pro(4,4-Me2) = CC1(C)CN[C@H](C(=O)O)C1; NMeD = CN[C@@H](CC(=O)O)C(=O)O; NMeL = CN[C@@H](CC(C)C)C(=O)O; Morpholide = C1CN(*)CCO1; Ac5c = NC1(C(=O)O)CCCC1; Aze = O=C(O)[C@@H]1CCN1; Sar = CNCC(=O)O
value kind: Kd (nM)
The answer is to be given in nM; state only the numeric part.

Field: example entries. Status: answers known.
[
  {
    "molecule": "CCO[C@@H]1C[C@H]2C(=O)NC3(CCC3)C(=O)N(C)[C@@H](C3CCCC3)C(=O)N(C)[C@H](C(=O)N(C)C)CC(=O)N(C)[C@@H](Cc3ccccc3)C(=O)N[C@@H]([C@@H](C)CC)C(=O)N(C)CC(=O)N(C)[C@H]3CCCCCN(C3=O)[C@@H](Cc3ccc(C(F)(F)F)cc3)C(=O)N(C)CC(=O)N[C@@H](CCc3cc(F)c(C(F)(F)F)c(F)c3)C(=O)N2C1 [PP0672]",
    "Kd, nM": 0.3
  },
  {
    "molecule": "CCC[C@H]1C(=O)N[C@@H]([C@@H](C)CC)C(=O)N(C)CC(=O)N(C)[C@H]2C/C=C\\CCN(C2=O)[C@@H](Cc2ccc(C)cc2)C(=O)N(C)CC(=O)N[C@@H](CCc2ccc(C(F)(F)F)c(OC)c2)C(=O)N2C[C@@H](C)C[C@H]2C(=O)NC2(CCC2)C(=O)N(C)[C@@H](C2CCCC2)C(=O)N(C)[C@H](C(=O)N(C)C)CC(=O)N1C [PP1857]",
    "Kd, nM": 0.091
  }
]

Attention now turns to another entry.
Return value of Kd for input CCCN1C(=O)CN(C)C(=O)[C@@H]2CCN2C(=O)[C@H]([C@@H](C)CC)NC(=O)[C@H](CC(C)C)N(C)C(=O)C[C@@H](C(=O)N2CCOCC2)N(C)C(=O)[C@H](C2CCCC2)N(C)C(=O)C2(CCCC2)NC(=O)[C@@H]2CC(C)(C)CN2C(=O)[C@H](CCc2ccc(C(F)(F)F)c(Cl)c2)NC(=O)CN(C)C(=O)[C@@H]1Cc1ccc(C(F)(F)F)cc1 [PP0452] ([NMeL]I[Aze][Sar][NPrPhe(4-CF3)][Sar][hPhe(3-Cl-4-CF3)][Pro(4,4-Me2)][Ac5c][NMeGly(cPent)][NMeD]-Morpholide; lactam N-11) , no commentary.
0.73

----------
molecular target: GDP-bound KRAS wild-type protein (Homo sapiens); assay: Binding to KRAS by surface plasmon resonance (SPR), dissociation constant KD; details: Single Cycle Kinetics
Examples of compounds with documented Kd follow.
The answer is to be given in nM; state only the numeric part.

[
  {
    "compound": "CC[C@H](C)[C@@H]1NC(=O)[C@H](CC)N(C)C(=O)C[C@@H](C(=O)N2CCOCC2)N(C)C(=O)[C@H](C2CCCC2)N(C)C(=O)C2(CCCC2)NC(=O)[C@@H]2CCCN2C(=O)[C@H](CCc2ccc(C(F)(F)F)c(Cl)c2)NC(=O)CN(C)C(=O)[C@H](Cc2ccc(F)cc2)N2CCCCC[C@@H](C2=O)N(C)C(=O)CN(C)C1=O [PP0959]",
    "Kd, nM": 0.39
  }
]

Return value of Kd for input C=CCN1CC(=O)N(C)[C@H]2C/C=C\CCN(C2=O)[C@@H](Cc2ccc(C(F)F)cc2)C(=O)N(C)CC(=O)N[C@@H](CCc2cc(F)c(C(F)(F)F)c(F)c2)C(=O)N2C[C@H](OC(C)C)C[C@H]2C(=O)N(C)C2(CCC2)C(=O)N(C)[C@@H](C(CC)CC)C(=O)N(C)[C@H](C(=O)N(C)C)CC(=O)N(C)[C@@H](COCCC)C(=O)N[C@@H]([C@@H](C)OCCC)C1=O [PP3486] , no commentary.
0.61

Return value of Kd for input CCO[C@@H]1C[C@H]2C(=O)NC3(CCC3)C(=O)N(C)[C@@H](C3CCCC3)C(=O)N(C)[C@H](C)CC(=O)N(C)[C@@H](CC(C)C)C(=O)N[C@@H]([C@@H](C)CC)C(=O)N(C)CC(=O)N(C)[C@H]3C/C=C\CCN(C3=O)[C@@H](Cc3ccc(C(F)(F)F)cc3)C(=O)N(C)CC(=O)N[C@@H](CCc3cc(F)c(C(F)(F)F)c(F)c3)C(=O)N2C1 [PP1100] , no commentary.
0.19

----------
Examples of compounds with documented Kd follow.
target: GDP-bound KRAS wild-type protein (Homo sapiens, UniProt P01116); experiment: Binding to KRAS by surface plasmon resonance (SPR), dissociation constant KD; details: Single Cycle Kinetics, 1:1 binding model
Sequence (P01116 1-188 isoform P01116-2): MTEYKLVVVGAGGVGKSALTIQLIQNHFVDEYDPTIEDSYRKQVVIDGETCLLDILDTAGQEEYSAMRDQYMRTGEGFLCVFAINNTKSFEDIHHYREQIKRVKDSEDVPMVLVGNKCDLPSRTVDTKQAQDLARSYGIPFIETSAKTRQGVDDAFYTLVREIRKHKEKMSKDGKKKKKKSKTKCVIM
The answer is to be given in pM; state only the numeric part.

[
  {
    "compound": "CCO[C@@H]1C[C@H]2C(=O)NC3(CCC3)C(=O)N(C)[C@@H](C3CCCC3)C(=O)N(C)[C@H](C(=O)N(C)C)CC(=O)N(C)[C@@H](CC3CC3)C(=O)N[C@@H]([C@@H](C)CC)C(=O)N(C)CC(=O)N(C)[C@H]3C/C=C\\CCN(C3=O)[C@@H](Cc3ccc(C(F)(F)F)cc3)C(=O)N(C)CC(=O)N[C@@H](CCc3ccc(Cl)c(Cl)c3)C(=O)N2C1 [PP1253]",
    "Kd [pM]": 200
  }
]

Attention now turns to another entry.
Return value of Kd for input C=CC[C@@H]1NC(=O)[C@H](CC2CC2)N(C)C(=O)C[C@@H](C(=O)N(C)CC=C)N(C)C(=O)[C@H](C2CCCC2)N(C)C(=O)C2(CCC2)NC(=O)[C@@H]2C[C@@H](OCC)CN2C(=O)[C@H](CCc2cc(F)c(C(F)(F)F)c(F)c2)NC(=O)CN(C)C(=O)[C@H](Cc2ccc(C(F)(F)F)cc2)N2CC/C=C\C[C@@H](C2=O)N(C)C(=O)CN(C)C1=O [PP1557] , no commentary.
1200

----------
System: human lung cancer strain NCI-H441
Assay type: cell-based
Description: A test compound was dispensed into a U-bottom 384-well plate as 40 nL serially diluted dimethyl sulfoxide solutions using a liquid handler Echo (LABCYTE). […] This cell suspension was dispensed in an amount of 40 µL per well into a plate containing the test compound, and cultured at 37°C in a 5% carbon dioxide gas incubator. Four days later, 20 µL of CellTiter-Glo (registered trademark) (Promega) was added to each well and […] was measured. […]
value kind: IC50

[
  {
    "compound": "CCO[C@@H]1C[C@H]2C(=O)NC(C)(C)C(=O)N(C)[C@@H](C3CCCC3)C(=O)N(C)[C@H](C(=O)N(C)CC)CC(=O)N(C)[C@@H](CC(C)C)C(=O)N[C@@H]([C@@H](C)CC)C(=O)N(C)CC(=O)N(C)[C@H]3C/C=C\\CCN(C3=O)[C@@H](Cc3ccc(C(F)(F)F)cc3)C(=O)N(C)CC(=O)N[C@@H](CCc3cc(F)c(C(F)(F)F)c(F)c3)C(=O)N2C1 [PP1937]",
    "value kind": "IC50",
    "endpoint value": "6.8 nM"
  }
]

Return value of IC50 for input CCO[C@@H]1C[C@H]2C(=O)NC3(CCC3)C(=O)N(C)[C@@H](C3CCCC3)C(=O)N(C)[C@H](C(=O)N3CCOCC3)CC(=O)N(C)[C@@H](CCOC)C(=O)N[C@@H]([C@@H](C)CC)C(=O)N(C)CC(=O)N(C)[C@H]3CCCCCN(C3=O)[C@@H](Cc3ccc(C(F)(F)F)cc3)C(=O)N(C)CC(=O)N[C@@H](CCc3cc(F)c(C(F)(F)F)c(F)c3)C(=O)N2C1 [PP0690] , no commentary.
60.7 nM

----------
system: human lung cancer strain NCI-H441; type: cell-based
Where a SMILES comes first, the peptide text is derived from it. Bridges are numbered along the chain shown (N, C = ends). [ ]: non-standard residue; d: D form. The star is where a group is joined. hPhe(3-Cl-4-CF3) = N[C@@H](CCc1ccc(C(F)(F)F)c(Cl)c1)C(=O)O; NPrPhe(4-CF3) = CCCN[C@@H](Cc1ccc(C(F)(F)F)cc1)C(=O)O; NMeGly(cPent) = CN[C@H](C(=O)O)C1CCCC1; NMeD = CN[C@@H](CC(=O)O)C(=O)O; NMeL = CN[C@@H](CC(C)C)C(=O)O; NMeAbu = CC[C@H](NC)C(=O)O; Morpholide = C1CN(*)CCO1; Ac4c = NC1(C(=O)O)CCC1; Sar = CNCC(=O)O
Rule: measured IC50 below 20 nM gets Criterion met; anything equal to or greater than 20 nM gets Criterion not met.

Field: example entries. Status: answers known.
[
  {
    "compound": "CC[C@H](C)[C@@H]1NC(=O)[C@H](CC(F)F)N(C)C(=O)C[C@@H](C(=O)N(C)C)N(C)C(=O)[C@H](C2CCCC2)N(C)C(=O)C2(CC(C)(C)C2)NC(=O)[C@@H]2CC(F)(F)CN2C(=O)[C@H](CCc2cc(F)c(C(F)(F)F)c(F)c2)NC(=O)CN(C)C(=O)[C@H](Cc2ccc(C(F)(F)F)cc2)N2CC/C=C\\C[C@@H](C2=O)N(C)C(=O)CN(C)C1=O [PP1709]",
    "qualitative label": "Criterion met"
  },
  {
    "compound": "CCCN1C(=O)CN(C)C(=O)CN(C)C(=O)[C@H]([C@@H](C)CC)NC(=O)[C@H](CC(C)C)N(C)C(=O)C[C@@H](C(=O)N2CCOCC2)N(C)C(=O)[C@H](C2CCCC2)N(C)C(=O)C2(CCC2)NC(=O)[C@H](CC)N(C)C(=O)[C@H](CCc2ccc(C(F)(F)F)c(Cl)c2)NC(=O)CN(C)C(=O)[C@@H]1Cc1ccc(C(F)(F)F)cc1 [PP1918] ([NMeL]I[Sar][Sar][NPrPhe(4-CF3)][Sar][hPhe(3-Cl-4-CF3)][NMeAbu][Ac4c][NMeGly(cPent)][NMeD]-Morpholide; lactam N-11)",
    "qualitative label": "Criterion not met"
  },
  {
    "compound": "CCCOC[C@H]1C(=O)N[C@@H]([C@@H](C)CC)C(=O)N(C)CC(=O)N(C)[C@H]2C/C=C\\CCN(C2=O)[C@@H](Cc2ccc(C(F)(F)F)cc2)C(=O)N(C)CC(=O)N[C@@H](CCc2cc(F)c(C(F)(F)F)c(F)c2)C(=O)N2C[C@H](OCC)C[C@H]2C(=O)NC2(CC(C)(C)C2)C(=O)N(C)[C@@H](C2CCCC2)C(=O)N(C)[C@H](C(=O)N(C)CC)CC(=O)N1C [PP1572]",
    "qualitative label": "Criterion met"
  }
]

Determine whether this compound shows IC50 lower than 20 nM (ties excluded): CCO[C@@H]1C[C@H]2C(=O)NC3(CC(C)(C)C3)C(=O)N(C)[C@@H](C(CC)CC)C(=O)N(C)[C@H](C(=O)N(C)C)CC(=O)N(C)[C@@H](CC(C)C)C(=O)N[C@@H]([C@@H](C)CC)C(=O)N(C)CC(=O)N(C)[C@H]3C/C=C\CCN(C3=O)[C@@H](Cc3ccc(C(F)(F)F)cc3)C(=O)N(C)CC(=O)N[C@@H](CCc3ccc(C(F)(F)F)c(Cl)c3)C(=O)N2C1 [PP2132]
Criterion met

Determine whether this compound shows IC50 lower than 20 nM (ties excluded): CC[C@H](C)[C@@H]1NC(=O)[C@H](CC(C)C)N(C)C(=O)C[C@@H](C(=O)N(C)CC)N(C)C(=O)[C@H](C2CCCC2)N(C)C(=O)C2(CCC2)NC(=O)[C@@H]2C[C@@H](C)CN2C(=O)[C@H](CCc2ccc(C(F)(F)F)c(OC)c2)NC(=O)CN(C)C(=O)[C@H](Cc2ccc(C)cc2)N2CC/C=C\C[C@@H](C2=O)N(C)C(=O)CN(C)C1=O [PP1907]
Criterion not met
